These data points were gathered from patent US6525053B1.

Field: melting point. Provide a value for each of the compounds that follow.

// returns reported melting point for input CS(=O)(=O)c1ccc(-c2cc(=O)n(CC(=O)c3ccccc3)nc2-c2ccc(F)cc2)cc1
178 to 180 °C

Lookup C#CCn1nc(-c2ccc(F)cc2)c(-c2ccc(S(C)(=O)=O)cc2)cc1=O
168 to 169 °C

Lookup CS(=O)(=O)c1ccc(-c2cc(=O)[nH]nc2-c2ccc(F)cc2)cc1
260 to 262 °C

Lookup CS(=O)(=O)c1ccc(-c2cc(=O)n(CC3CCCCC3)nc2-c2ccc(F)cc2)cc1
175 to 176 °C

Lookup CCn1nc(-c2ccc(F)cc2)c(-c2ccc(S(C)(=O)=O)cc2)cc1=O
177 to 179 °C

Lookup CC(C)=CCn1nc(-c2ccc(F)cc2)c(-c2ccc(S(C)(=O)=O)cc2)cc1=O
71 to 72 °C

Lookup Cn1nc(-c2ccc(F)cc2)c(-c2ccc(S(C)(=O)=O)cc2)cc1=O
181 to 182 °C

Lookup CCCCn1nc(-c2ccc(F)cc2)c(-c2ccc(S(C)(=O)=O)cc2)cc1=O
111 to 113 °C
